Each entry below carries its reported CMV-LACZ in Myotubes, value relative to DMSO.
Tested on: β-galactosidase in CMV-LacZ C2C12 myotubes
METHOD_NOTES: CMV-LacZ secondary screen in C2C12 myotubes (β-Gal stabilizing assay)
Assay type: cell-based, mouse
RECORDED_CONDITIONS: 20 uM; SU9516 analogs, C2C12 CMV-LacZ, N=2
Please state the value as a number alone, without comment.

Worked cases, CMV-LACZ in Myotubes, value relative to DMSO given:
{"columns": ["MOLECULE", "VALUE_MEASURED"],
 "data": [
  ["O=C1Nc2ccccc2/C1=C/c1cccnc1", 1.1753],
  ["C=CCOc1ccc(C(=O)/C=C2/C(=O)Nc3ccccc32)cc1", 1.2424],
  ["CCN(CC)CCNC(=O)c1c(C)[nH]c(/C=C2\\C(=O)Nc3ccc(F)cc32)c1C [NCGC00164631-03]", 0.6690],
  ["NC(=O)COc1ccc(C(=O)/C=C2/C(=O)Nc3ccccc32)cc1", 6.2635],
  ["COc1ccccc1/C=C1\\C(=O)Nc2ccccc21", 0.9750],
  ["Cc1cc(C)c(/C=C2\\C(=O)Nc3ccccc32)[nH]1 [NCGC00094381-05]", 6.8950],
  ["O=C1Nc2ccccc2/C1=C/c1ccccc1Cl", 0.9918],
  ["O=C1Nc2ccccc2/C1=C\\c1cccn1-c1ccc(OC(F)(F)F)cc1", 1.0160]
]}

Now consider a different molecule.
q: Tell me its CMV-LACZ in Myotubes, value relative to DMSO given O=C(O)COc1ccccc1/C=C1\C(=O)Nc2ccc(Br)cc21 as the entry.
a: 0.9918

* * *

System: β-galactosidase in CMV-LacZ C2C12 myotubes
METHOD_NOTES: CMV-LacZ secondary screen in C2C12 myotubes (β-Gal stabilizing assay)
Assay type: cell-based, mouse
RECORDED_CONDITIONS: 10 uM; C2C12 CMV-LacZ myotubes; fold relative to DMSO
Each entry below carries its reported CMV-LACZ in Myotubes, signal relative to DMSO.

{"columns": ["COMPOUND", "SYSTEM", "VALUE_MEASURED"],
 "data": [
  ["O=C(O)c1csc(-c2cccs2)n1", "β-galactosidase in CMV-LacZ C2C12 myotubes", 0.9789],
  ["Cc1ccc(C(=O)N2CCN(S(=O)(=O)N3CCOCC3)CC2)cc1", "β-galactosidase in CMV-LacZ C2C12 myotubes", 0.8722],
  ["COc1ccccc1N(C(=O)CNC(=O)c1ccco1)C(C(=O)NC1CCCCC1)c1ccncc1 (stereo not drawn)", "β-galactosidase in CMV-LacZ C2C12 myotubes", 0.7701]
]}

q: Tell me its CMV-LACZ in Myotubes, signal relative to DMSO given CNC(=O)/C(=C\c1cccc(Oc2ccccc2)c1)NC(=O)c1ccccc1 as the entry.
a: 0.7418

q: Tell me its CMV-LACZ in Myotubes, signal relative to DMSO given CC(=O)Nc1c(-c2ccc(Cl)cc2)c(=O)c2ccccc2n1C as the entry.
a: 0.9363

q: Tell me its CMV-LACZ in Myotubes, signal relative to DMSO given C/C(=N\NC(=O)c1cc(C)oc1C)c1ccc2ccccc2c1 as the entry.
a: 1.2253

q: Tell me its CMV-LACZ in Myotubes, signal relative to DMSO given COc1ccc(CCNC(=O)Cn2nnc(C(=O)Nc3ccc(Br)cc3)c2N)cc1OC as the entry.
a: 1.1310

q: Tell me its CMV-LACZ in Myotubes, signal relative to DMSO given COc1cccc(CN2CCN(Cc3ccco3)CC2)c1.O=C(O)C(=O)O as the entry.
a: 1.0196

q: Tell me its CMV-LACZ in Myotubes, signal relative to DMSO given CC1CCCCC12NC(=O)N(CC(=O)OCc1cccc(F)c1)C2=O (stereo not drawn) as the entry.
a: 0.9679
